Assayed Target: T1, first PHD finger of autoimmune regulator (AIRE-PHD1), wild type (human, UniProt O43918 293-354)
T1 sequence (looked up): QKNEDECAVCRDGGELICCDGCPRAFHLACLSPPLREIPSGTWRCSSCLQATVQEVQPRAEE
Test: ITC

# Binder, Kd (µM)
data = [
    ("ARTKQTAAKS [mutant histone H3 peptide (1-10) H3R8AK4me0]", 55.9),
]
